# Test system: BT-549 breast
# Assay Notes: NCI-60 one-dose screen, 48 h (100 = growth as untreated, 0 = no growth, -100 = all killed)
# Test Settings: 10 µM unless noted
About 83,000 compounds went through this panel and 20% of them were active in at least one assay; those are over-represented in the sample as a whole.
Readout Type: growth (%)

> print(dat)
                                    molecule  observed.result
 1            c1ccc2c(c1)Oc1cccnc1-n1nccc1-2              101
 2  CC1(C)N=C(N)N=C(N)N1c1ccc(F)c(C(F)(F)F)c1             61.5
 3  CN1CCN(C(=O)/C=C/c2ccc([N+](=O)[O-])o2)CC1              105
 4  CC1(C)N=C(N)N=C(N)N1c1cccc(CCCCc2ccccc2)c1            -35.1
 5  O=C(NCCNc1nccc(-c2c(-c3cccc(O)c3)nc3sccn23)n1)c1ccccc1             61.4
 6  CCN(CC)CCNCC(O)Cc1ccc(OC)cc1 (stereo not given)             83.9
 7  CN(C)c1ccc(/C=c2\s/c(=C\C(=O)C(C)(C)C)[nH]c2=O)cc1             97.3
 8  O=C(Nc1ccc(-n2ccc3c(NC(=O)c4ccccc4)ncnc32)cc1)Nc1ccc(Cl)c(C(F)(F)F)c1               56
 9         COc1cc(NS(=O)(=O)c2ccc(N)cc2)ncn1              107
10  COc1ccc(-c2cc(-c3nnc(SC/C(=N\O)c4ccccc4)n3-c3ccccc3)c3ccccc3n2)cc1              108

* * *

# System: NCI-H460 lung
# Assay Notes: NCI-60 one-dose screen, 48 h (100 = growth as untreated, 0 = no growth, -100 = all killed)
# Test Settings: 10 µM unless noted
Compounds without any hit were thinned out: in the full panel of roughly 83,000, 20% have a hit.
Readout Type: growth (%)

> print(dat)
                         structure.notation  endpoint.unit  observed.result
1  O=C(/C=C/c1ccccc1)Oc1ccc(/C=C/c2cc(OC(=O)/C=C/c3ccccc3)cc(OC(=O)/C=C/c3ccccc3)c2)cc1              %              100
2  O=C(CSc1nnc(-c2cc3c([nH]c4ccccc43)c(-c3cccc(O)c3)n2)n1-c1ccccc1)c1ccccc1              %             65.3
3  COc1ccc(-c2nn(-c3ccc(NC(=O)c4ccc(Cl)c(C(F)(F)F)c4)cc3)cc2-c2ccncc2)cc1Cl              %             11.3
4      COc1ccc(-c2coc3c(CO)c(O)ccc3c2=O)cc1              %             32.7

* * *

# Tested on: OVCAR-8 ovarian
# Assay Notes: NCI-60 one-dose screen, 48 h (100 = growth as untreated, 0 = no growth, -100 = all killed)
# Test Settings: 10 µM unless noted
Compounds without any hit were thinned out: in the full panel of roughly 83,000, 20% have a hit.
Reported growth is given for each of the following compounds.

Compound	growth (%)
O=C1c2ccccc2C(=O)c2c(NCCN=Cc3c(O)ccc4ccccc34)cccc21	69.9
O=C(NCCNc1nccc(-c2c(-c3cccc(O)c3)nc3sccn23)n1)c1cc(N2CCOCC2)cc(C(F)(F)F)c1	78.1
COc1cccc(/C=N/C(=S)NC2(C)C3CCC(C3)C2(C)C)c1O (centres undefined)	85.4
COc1cc(/C=C/C(=O)c2c(C)n([O-])c3cc(C)c(C)cc3[n+]2=O)cc(OC)c1OC	63.2
CN[C@@H](CCCNC(N)=NC/C=C(/C)CCC=C(C)C)C(=O)N(C)[C@@H](CCCNC(N)=NCC=C(C)C)C(=O)N[C@H](C)[C@H](OS(=O)(=O)O)c1ccc(OS(=O)(=O)O)c(COS(=O)(=O)O)c1	98.4
Oc1ccccc1/C=N/c1ccccn1	95
COc1cc(C(=O)C[n+]2ccccc2)ccc1OC(C)=O	102
O=C(Nc1ccc(-n2ccc3c(NC(=O)c4ccccc4)ncnc32)cc1)Nc1ccc(Cl)c(Cl)c1	0.377
Clc1ccc2c(NCCNc3nc(Cl)nc4ccccc34)ccnc2c1	-62.5
O=S(=O)(Nc1cccc2cc(OS(=O)(=O)c3ccccc3)ccc12)c1ccccc1	75.2
COc1cc(/C=C/C(=O)c2ccc(Oc3ncnc4ccccc34)cc2)cc(OC)c1OC	74.9
COc1cc2c(/C=C3/C(=O)Nc4ccc(O)cc43)c(Cl)n(Cc3cc(OC)c(OC)c(OC)c3)c2cc1C	22.3
O=C(Cn1c2ccccc2c2ccncc21)N/N=C/c1cc(O)c(O)c(O)c1	103
C#CCn1c(-c2cc(OC)c(OC)cc2Br)nc(-c2ccccc2)c1-c1ccccc1	57.4
Cc1cc(N2CCOCC2)nc(N(CCNc2ccnc3cc(Cl)ccc23)Cc2ccco2)n1	34.6
Nc1ccc(S(=O)(=O)Nc2ccnn2-c2ccccc2)cc1	93.7
COc1cc(NS(C)(=O)=O)ccc1Cc1c2ccccc2nc2ccccc12	2.44
CC[C@@]1(O)C(=O)OCc2c1cc1n(c2=O)Cc2c-1nc1ccccc1c2/C=N/OC(C)(C)C	3.32
C=C1C(=O)O[C@H]2[C@H]1CC/C(COC(=O)n1ccnc1C)=C\CC[C@@]1(C)O[C@@H]21	91.4
